Parameter: inhibition. Scope: all listed entries.
assayed-system: Solute carrier family 2, facilitated glucose transporter member 1 (Homo sapiens) (UniProt P11166)
Sequence (P11166 whole entry): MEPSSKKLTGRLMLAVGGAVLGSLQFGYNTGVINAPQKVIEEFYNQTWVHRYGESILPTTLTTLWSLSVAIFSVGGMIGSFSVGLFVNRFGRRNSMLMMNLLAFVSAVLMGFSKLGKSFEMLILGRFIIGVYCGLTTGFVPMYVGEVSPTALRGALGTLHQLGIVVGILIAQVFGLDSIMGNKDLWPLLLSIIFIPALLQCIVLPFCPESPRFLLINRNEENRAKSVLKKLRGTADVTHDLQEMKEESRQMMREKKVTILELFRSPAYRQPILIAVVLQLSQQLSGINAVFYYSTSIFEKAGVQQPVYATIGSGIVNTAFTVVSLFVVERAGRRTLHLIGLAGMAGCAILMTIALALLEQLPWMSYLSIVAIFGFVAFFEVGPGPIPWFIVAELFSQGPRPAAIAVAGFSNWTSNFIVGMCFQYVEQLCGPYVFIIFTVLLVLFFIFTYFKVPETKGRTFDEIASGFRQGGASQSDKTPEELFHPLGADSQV
test-name: ST_JUDE_LEISH: Cytotoxicity at 2uM final concentration against transgenic Leishmania Mexicana promastigotes LmGLUT1 that are glucose transport deficient and complemented with the human glucose transporter GLUT1. Activity is measured by DNA content using SYBR green in vitro
Assay type: functional
Your answer is read as %, so omit the unit and give the number.

Look over these answered cases.
{"compound": "COc1ccc2nccc([C@@H](O)CN3CCC(CO)(NCc4cc5ccccc5o4)CC3)c2c1", "inhibition [%]": 7.99}
{"compound": "COc1ccc(C(=O)NCc2ccc(N)nc2C)cc1Nc1ncc(-c2cccc(N(C)C)c2)cn1", "inhibition [%]": 0.19}
{"compound": "O=C1C2C3SC(c4c3ccc3ccccc43)C2C(=O)N1c1ccccc1 (centres undefined)", "inhibition [%]": -0.44}
{"compound": "CN(c1ccc(NC(=O)Nc2cc(C(C)(C)C)on2)cc1)c1ccnc(NCCN2CCOCC2)n1", "inhibition [%]": 32.3}
{"compound": "N=C(N)NC(=O)Nc1cc(Cl)c(Cl)c(Cl)c1", "inhibition [%]": 2.56}
{"compound": "CNC(=O)c1cnc(Nc2ccc(N3CCN(C)CC3)cc2)nc1Nc1cccc(OC)c1", "inhibition [%]": 3.74}
{"compound": "Cc1noc(C)c1-c1cccc(CNCc2cccc(-c3ccc(-c4nc5cccc(C)c5[nH]4)cc3)c2)c1", "inhibition [%]": 1.89}
{"compound": "CCC(C)c1ccc(-n2c(Nc3ccccc3)nc3cc(S(N)(=O)=O)ccc32)cc1 (centres undefined)", "inhibition [%]": 12.3}

Next item in the queue.
Request: Would you mind telling me what inhibition value was observed for COc1cc(NC(=O)c2nn(CCCN3CCC(N4CCCC4)CC3)cc2-c2ccc(Cl)c(Cl)c2)cc(OC)c1OC ?
Result: 1.76

Provenance of the data: ChEMBL document CHEMBL3433997
